Provenance of the data: patent US10202361B2

Would you mind telling me the reported Plant response rating of each entry?
# System: canarygrass (Phalaris minor)
# Experimental details: Test D pre-/postemergence controlled growth environment herbicide test
# Type: in vivo
# Settings: Preemergence, 62 g ai/ha, scale 0 to 100
# Source text: […]
Lab note: jot the number down without any unit.

INPUT: Query: Plant response rating; subject: `Cc1cc(=O)n(-c2ccc(F)cc2)nc1Cc1ccnc(C(F)(F)F)c1`
OUTPUT: 0

INPUT: Query: Plant response rating; subject: `Cc1cc(=O)n(-c2ccc(C(F)(F)F)cc2)nc1Cc1ccnc(C(F)(F)F)c1`
OUTPUT: 25

INPUT: Query: Plant response rating; subject: `Cc1cc(=O)n(-c2ccc(F)cc2)nc1Oc1ccnc(C(F)(F)F)c1`
OUTPUT: 20

INPUT: Query: Plant response rating; subject: `COc1cc(=O)n(-c2ccc(F)cc2)nc1Cc1ccnc(C(F)(F)F)c1`
OUTPUT: 0
